The values you see were collected from paper PMC5540273.

- System: MST3;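 also: KINOMEscan kinase panel screen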
- Construct: gene STK24
- Particulars: concentration: 1 μM, replicates: in singlicate; n = 1
Define the label as fulfilled when %Inh is strictly less than 6% and as not fulfilled in all remaining cases.

Solved entries:
Compound	Tested system	Class assignment
Cc1cccc(-c2nc(Nc3ccc4c(cnn4C)c3)c3ccccc3n2)n1	MST3	fulfilled
COc1ccc(-c2coc3ccc(-c4nnc(SCc5cccc(C#N)c5)o4)cc23)cc1	MST3	not fulfilled
COc1cc(Nc2nccc(N3CCC(NC(=O)C(C)c4ccc(Cl)cc4)C3)n2)cc(OC)c1OC (stereo not drawn)	MST3	fulfilled
COc1cc(OC)cc(-c2cc3cnc(N)nc3nc2NC(=O)NC(C)(C)C)c1	MST3	fulfilled

Qu. Dear colleague, could you confirm whether %Inh of Nc1ncnc2c1ncn2-c1ccc(Cl)cc1 falls below 6%? Thanks.
Ans. fulfilled

Qu. Record CCc1nc(-c2cccc(C)c2)c(-c2ccncc2)s1 : is its %Inh strictly below 6%?
Ans. not fulfilled
